Source: patent US20210388087A1

# TEST_TARGET: T1, Human CD137 ECD (human)
# T1 construct: also called human CD137 extracellular domain; hCD137
# T1 sequence (chain, as listed by the source limits assumed): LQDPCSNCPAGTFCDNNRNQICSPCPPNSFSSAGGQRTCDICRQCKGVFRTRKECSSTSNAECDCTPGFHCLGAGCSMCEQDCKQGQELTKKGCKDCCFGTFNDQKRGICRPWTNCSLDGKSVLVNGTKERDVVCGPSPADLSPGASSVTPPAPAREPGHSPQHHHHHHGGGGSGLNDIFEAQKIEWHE
# TEST: SPR (Biacore), affinity of single-mutation variant against parental H183/L072
Listed here: items and their measured fold change of affinity for CD137.

BINDER: Dual-Fab H183/L072 variant with single light chain mutation N53Y (Kabat) (antibody, name in Kabat numbering, V domains shown, expressed as an antibody in Expi293 and purified on Protein A; also called dBBDu183H / dBBDu072L N53Y) VH: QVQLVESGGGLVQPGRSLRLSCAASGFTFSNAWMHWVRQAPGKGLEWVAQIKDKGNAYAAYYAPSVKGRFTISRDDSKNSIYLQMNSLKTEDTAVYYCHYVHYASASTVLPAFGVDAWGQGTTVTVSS VL: DIVMTQSPLSLPVTPGEPASISCQASQELVHMNRNTYLHWYQQKPGQAPRLLIYKVSYRFPGVPDRFSGSGSGTDFTLKISRVEAEDVGVYYCAQGTSVPFTFGQGTKLEIK
UOM: fold
fold change of affinity for CD137: 0.3

BINDER: Dual-Fab H183/L072 variant with single light chain mutation A89Y (Kabat) (antibody, name in Kabat numbering, V domains shown, expressed as an antibody in Expi293 and purified on Protein A; also called dBBDu183H / dBBDu072L A89Y) VH: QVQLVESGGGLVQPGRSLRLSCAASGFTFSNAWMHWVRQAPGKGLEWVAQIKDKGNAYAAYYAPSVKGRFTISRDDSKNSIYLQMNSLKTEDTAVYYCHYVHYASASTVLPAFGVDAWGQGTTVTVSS VL: DIVMTQSPLSLPVTPGEPASISCQASQELVHMNRNTYLHWYQQKPGQAPRLLIYKVSNRFPGVPDRFSGSGSGTDFTLKISRVEAEDVGVYYCYQGTSVPFTFGQGTKLEIK
UOM: fold
fold change of affinity for CD137: 0

BINDER: Dual-Fab H183/L072 variant with single light chain mutation S93Y (Kabat) (antibody, name in Kabat numbering, V domains shown, expressed as an antibody in Expi293 and purified on Protein A; also called dBBDu183H / dBBDu072L S93Y) VH: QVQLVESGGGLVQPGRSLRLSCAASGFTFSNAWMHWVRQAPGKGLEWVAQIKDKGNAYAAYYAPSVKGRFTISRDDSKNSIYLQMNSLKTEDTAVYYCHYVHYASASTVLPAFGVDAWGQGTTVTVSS VL: DIVMTQSPLSLPVTPGEPASISCQASQELVHMNRNTYLHWYQQKPGQAPRLLIYKVSNRFPGVPDRFSGSGSGTDFTLKISRVEAEDVGVYYCAQGTYVPFTFGQGTKLEIK
UOM: fold
fold change of affinity for CD137: 0.8

BINDER: Dual-Fab H183/L072 variant with single light chain mutation Q90Y (Kabat) (antibody, name in Kabat numbering, V domains shown, expressed as an antibody in Expi293 and purified on Protein A; also called dBBDu183H / dBBDu072L Q90Y) VH: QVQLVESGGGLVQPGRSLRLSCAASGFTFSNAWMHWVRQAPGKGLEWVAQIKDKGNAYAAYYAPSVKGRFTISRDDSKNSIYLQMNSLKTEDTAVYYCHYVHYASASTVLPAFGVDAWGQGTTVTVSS VL: DIVMTQSPLSLPVTPGEPASISCQASQELVHMNRNTYLHWYQQKPGQAPRLLIYKVSNRFPGVPDRFSGSGSGTDFTLKISRVEAEDVGVYYCAYGTSVPFTFGQGTKLEIK
UOM: fold
fold change of affinity for CD137: 0

BINDER: Dual-Fab H183/L072 variant with single light chain mutation T92Y (Kabat) (antibody, name in Kabat numbering, V domains shown, expressed as an antibody in Expi293 and purified on Protein A; also called dBBDu183H / dBBDu072L T92Y) VH: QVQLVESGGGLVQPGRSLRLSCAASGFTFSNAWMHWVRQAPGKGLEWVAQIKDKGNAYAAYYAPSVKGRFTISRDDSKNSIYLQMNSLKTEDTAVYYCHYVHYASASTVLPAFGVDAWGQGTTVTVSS VL: DIVMTQSPLSLPVTPGEPASISCQASQELVHMNRNTYLHWYQQKPGQAPRLLIYKVSNRFPGVPDRFSGSGSGTDFTLKISRVEAEDVGVYYCAQGYSVPFTFGQGTKLEIK
UOM: fold
fold change of affinity for CD137: 0
